Item-by-item account of inhibition
# targetOrSystem: 5'-AMP-activated protein kinase catalytic subunit alpha-2 (Homo sapiens) (UniProt P54646);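 also: mean inhibition measured on the AMPK complex of alpha2, beta1 and gamma1 subunits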
# Sequence (P54646 whole entry, looked up): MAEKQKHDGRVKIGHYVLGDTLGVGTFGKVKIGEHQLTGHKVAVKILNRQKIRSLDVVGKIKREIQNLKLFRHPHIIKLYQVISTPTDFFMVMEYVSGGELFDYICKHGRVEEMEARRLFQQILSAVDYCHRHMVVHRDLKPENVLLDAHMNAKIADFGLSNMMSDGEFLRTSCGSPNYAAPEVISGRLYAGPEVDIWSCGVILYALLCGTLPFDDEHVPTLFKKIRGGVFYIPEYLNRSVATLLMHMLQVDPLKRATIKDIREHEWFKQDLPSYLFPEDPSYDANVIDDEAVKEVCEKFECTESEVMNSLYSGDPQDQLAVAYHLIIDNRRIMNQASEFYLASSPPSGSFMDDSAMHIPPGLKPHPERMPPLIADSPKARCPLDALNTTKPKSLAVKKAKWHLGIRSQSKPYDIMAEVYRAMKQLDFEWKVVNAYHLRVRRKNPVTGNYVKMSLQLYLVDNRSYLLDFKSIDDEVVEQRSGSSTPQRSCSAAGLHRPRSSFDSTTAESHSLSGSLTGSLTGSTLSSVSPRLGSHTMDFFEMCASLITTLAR
# runParameters: at 0.1 µM
# Description: GSK_PKIS: AMPKA2 (A2B1G1) mean inhibition at 0.1 uM [Nanosyn]
Respond numerically; units are % and should not be typed.

Consider the following illustrative entries.
> print(dat)
                                   compound  reportedresult
1  CN(C)CCCNc1nccc(-c2c(-c3ccc(F)cc3)nn3cc(C(F)(F)F)ccc23)n1            0.22
2  Fc1ccc(-c2ncn(CCCN3CCOCC3)c2-c2ccncc2)cc1            0.28
3  O=C(Nc1ccc(Oc2ccc3[nH]c(NC(=O)c4ccccc4)nc3c2)cc1)Nc1cc(C(F)(F)F)ccc1F            0.79

Shifting focus to the compound that follows.
Please fill in: inhibition reported for `CCc1ccc(Oc2nccc(-c3c(-c4ccc(F)cc4)ncn3C3CCNCC3)n2)cc1` = 5.08

====

Item-by-item account of inhibition
# targetOrSystem: Serine/threonine-protein kinase B-raf (Homo sapiens) (UniProt P15056);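 also: reported value is the mean percent inhibition of BRAF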
# Sequence (P15056 whole entry): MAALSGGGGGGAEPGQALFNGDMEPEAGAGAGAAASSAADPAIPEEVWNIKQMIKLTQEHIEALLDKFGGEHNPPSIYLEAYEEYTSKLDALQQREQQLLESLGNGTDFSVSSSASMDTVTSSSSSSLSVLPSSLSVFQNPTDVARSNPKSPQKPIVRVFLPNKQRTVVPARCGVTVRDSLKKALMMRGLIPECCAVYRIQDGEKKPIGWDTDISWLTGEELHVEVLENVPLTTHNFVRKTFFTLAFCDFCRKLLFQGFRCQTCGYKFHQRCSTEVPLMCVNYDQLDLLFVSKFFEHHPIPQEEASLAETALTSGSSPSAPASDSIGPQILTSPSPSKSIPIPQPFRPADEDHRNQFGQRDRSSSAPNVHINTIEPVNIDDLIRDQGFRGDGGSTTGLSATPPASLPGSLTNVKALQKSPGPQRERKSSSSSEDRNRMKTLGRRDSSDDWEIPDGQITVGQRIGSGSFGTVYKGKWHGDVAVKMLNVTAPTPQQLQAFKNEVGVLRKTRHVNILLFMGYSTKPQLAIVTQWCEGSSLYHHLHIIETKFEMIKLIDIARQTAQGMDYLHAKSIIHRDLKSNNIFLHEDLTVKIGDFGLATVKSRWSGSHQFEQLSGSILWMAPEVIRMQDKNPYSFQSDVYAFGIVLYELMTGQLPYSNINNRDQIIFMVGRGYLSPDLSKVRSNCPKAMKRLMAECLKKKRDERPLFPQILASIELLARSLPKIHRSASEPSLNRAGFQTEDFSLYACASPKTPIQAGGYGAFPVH
# runParameters: at 1 µM
Respond numerically; units are % and should not be typed.

Consider the following illustrative entries.
> print(dat)
                                   compound                            targetorsystem  attributemeasured  unitofmeasure  reportedresult
1  COC(=O)Nc1nc2ccc(Sc3ccc(NC(=O)Nc4cc(C(F)(F)F)ccc4F)cc3)cc2[nH]1  Serine/threonine-protein kinase B-raf (Homo sapiens) (UniProt P15056)         inhibition              %            14.8
2  COc1cc2ncn(-c3cc(OCCc4ccccc4)c(C(N)=O)s3)c2cc1OC  Serine/threonine-protein kinase B-raf (Homo sapiens) (UniProt P15056)         inhibition              %            3.36
3  COc1cc(C)c(N(C)C(=O)CN(C)C)cc1Nc1nc(Nc2cccc(F)c2C(N)=O)c2cc[nH]c2n1  Serine/threonine-protein kinase B-raf (Homo sapiens) (UniProt P15056)         inhibition              %            3.95
4  COc1ccc(-c2ccc3c(NC(=O)C4CC4)n[nH]c3n2)cc1  Serine/threonine-protein kinase B-raf (Homo sapiens) (UniProt P15056)         inhibition              %               2
5  N#Cc1ccc(Oc2nccc(-c3c(-c4ccc(F)cc4)ncn3C3CCNCC3)n2)cc1  Serine/threonine-protein kinase B-raf (Homo sapiens) (UniProt P15056)         inhibition              %            6.24
6  Nc1nccc(-c2c(-c3ccc(F)cc3)ncn2C2CCC(O)CC2)n1 (stereo not given)  Serine/threonine-protein kinase B-raf (Homo sapiens) (UniProt P15056)         inhibition              %           -1.06

Please fill in: inhibition reported for `O=C1NC(=O)C(c2cccc(Cl)c2)=C1Nc1ccc(Cl)c(C(=O)O)c1` = 2.76

Please fill in: inhibition reported for `O=C(Nc1n[nH]c2nc(-c3ccc(O)cc3)c(Br)cc12)C1CC1` = 12.6

Please fill in: inhibition reported for `Cc1ccc(C(=O)NC2CCC2)cc1-c1ccc(C(=O)NCC2CC2)cc1` = 2.03

Please fill in: inhibition reported for COc1ccc2cc(-c3c(-c4ccncc4)nc(-c4ccc([S+](C)[O-])cc4C)n3C)ccc2c1 (stereo not given) = -0.78
